# tgt: Nuclear receptor subfamily 1 group I member 2 (Homo sapiens)
# experimental.protocol: CYP3A4 induction through human pregnane X receptor (PXR) by small molecules, qHTS assay (AID 1346984); note: nearly all actives have a fitted effect of over 40% in size
# applied.conditions: DPX-2 HepG2 PXR, CYP3A4-luciferin luminescence, 24 h; series mostly up to 46.1 µM
Results filed as inconclusive are left out. Calls of active or inactive are those of the source. Calls come from the whole dose curve; as a rule, active = well fitted activation curve with a large enough effect in the repeat runs; inconclusive = weak or mixed curves; inactive = no such curve, though single readings can be large or run the other way.
result.type: outcome

In [3]: df
Out[3]:
                      structure_as_smiles  result_type  obs_value
0  CC(=O)c1ccc2c(c1)N(CCCN(C)C)c1ccccc1S2      outcome   inactive
1  CCn1cc(C(=O)O)c(=O)c2cnc(N3CCNCC3)nc21      outcome   inactive
2               Cc1[nH]c(C)c(Cl)c(=O)c1Cl      outcome   inactive

---

# experimental.protocol: qHTS RealTime-Glo MT Cell Viability Assay in HepG2 cells - 24 hour (AID 1224867); note: nearly all actives have a fitted effect of over 50% in size
# applied.conditions: RealTime-Glo luminescence; series mostly up to 76.8 µM
# Excerpt: U.S. Tox21 Program National Center for Advancing Translational Sciences [NCATS] NIH Chemical Genomics Center [NCGC] U.S. Environmental Protection Agency [EPA] National Institutes of Environmental Health Sciences [NIEHS] National Toxicology Program [NTP] U.S. Food and Drug Administration [FDA] Tox21 Assay Overview: Measure of cell viability is critical in the cell-base assay. Analysis of cell viability is necessary for the characterization of cell responses to cytotoxic drugs and environmental stress. […]
Records with an inconclusive call do not appear. The source made the active and inactive calls. Calls come from the whole dose curve; as a rule, active = well fitted cell-killing curve with a large enough effect in the repeat runs; inconclusive = weak or mixed curves; inactive = flat fitted curve, though single readings scatter.
result.type: activity change, negative = cytotoxicity

Below, 5 compounds whose answers are already recorded.
In [3]: df
Out[3]:
                                   compound  obs_value
0            CN1CCC(N(Cc2cccs2)c2ccccc2)CC1   inactive
1  CCOC(=O)C1=C[C@]2(CC)CCCN3CCc4c(n1c1ccccc41)[C@@H]32   inactive
2  OC[C@H]1O[C@@H](OCCc2ccc(O)cc2)[C@H](O)[C@@H](O)[C@@H]1O   inactive
3   O=CC1CC=CCC1 (configuration not stated)   inactive
4    COc1cccc(N(C)C(=S)Oc2ccc3c(c2)CCCC3)n1   inactive

Challenge: Given the entry COc1ccc2cccc(CCNC(C)=O)c2c1 , report its measured activity change, negative = cytotoxicity.
Response given: inactive

Challenge: Given the entry C#CCN(C)CCCOc1ccc(Cl)cc1Cl , report its measured activity change, negative = cytotoxicity.
Response given: inactive

---

# experimental.protocol: qHTS assay for small molecule agonists of the p53 signaling pathway - cell viability (AID 651633); note: nearly all actives have a fitted effect of over 30% in size
# applied.conditions: p53RE-bla HCT-116 viability, ATP luminescence, 16 h; series mostly up to 83.3 µM
Results filed as inconclusive are left out. Calls of active or inactive are those of the source. The call rests on the fitted dose curve.
Permitted responses: active, inactive

Challenge: Just curious, what result did C#CCN(C)CCCOc1ccc(Cl)cc1Cl get here?
Response given: inactive

Challenge: Just curious, what result did Cc1ccccc1S(=O)(=O)O get here?
Response given: inactive

Challenge: Just curious, what result did CCOc1ccc(N)c([N+](=O)[O-])c1 get here?
Response given: inactive

Challenge: Just curious, what result did CCCCc1nc2cccnc2n1Cc1ccc(-c2ccccc2-c2nnn[nH]2)cc1 get here?
Response given: inactive

Challenge: Just curious, what result did CCC(C)(C)CC get here?
Response given: inactive

Challenge: Just curious, what result did CCCCCC[C@@H](O)C/C=C\CCCCCCCC(=O)OC get here?
Response given: inactive

Challenge: Just curious, what result did CCCCCCCC#N get here?
Response given: inactive

Challenge: Just curious, what result did N=c1ccn2c(n1)O[C@H]1[C@H](O)[C@@H](CO)O[C@H]12 get here?
Response given: inactive

Challenge: Just curious, what result did CN1CCC(N(Cc2cccs2)c2ccccc2)CC1 get here?
Response given: inactive

Challenge: Just curious, what result did CC(C)(O)c1ccc(CNC(=O)c2cccnc2Oc2ccc(F)cc2)cc1 get here?
Response given: inactive

Challenge: Just curious, what result did COc1cc2c(cc1OC)C(C(C(=O)N(CCc1ccc(OC)c(OC)c1OC)CCc1ccc(OC)c(OC)c1OC)c1ccccc1)=NCC2 (stereo not drawn) get here?
Response given: inactive

Challenge: Just curious, what result did O=P(O)(OCc1ccccc1)OCc1ccccc1 get here?
Response given: inactive

Challenge: Just curious, what result did O=C(O)c1nc(Cl)c(Cl)c(Cl)c1Cl get here?
Response given: inactive

Challenge: Just curious, what result did Cc1c(N)cccc1[N+](=O)[O-] get here?
Response given: inactive

Challenge: Just curious, what result did CCOc1ccc(O)cc1 get here?
Response given: inactive

Challenge: Just curious, what result did O=C(O)c1ccccc1Cl get here?
Response given: inactive

Challenge: Just curious, what result did CC1OC(=O)C(C)OC1=O (stereo not drawn) get here?
Response given: inactive

Challenge: Just curious, what result did CC(COCCO)OCCO (stereo not drawn) get here?
Response given: inactive

Challenge: Just curious, what result did O=C(Cl)c1cc(C(=O)Cl)cc(C(=O)Cl)c1 get here?
Response given: inactive

Challenge: Just curious, what result did OCCN1CCN(CCCN2c3ccccc3C=Cc3ccccc32)CC1 get here?
Response given: inactive

Challenge: Just curious, what result did C#C[C@]1(O)CC[C@H]2[C@@H]3CCc4cc(OC5CCCC5)ccc4[C@H]3CC[C@@]21C get here?
Response given: inactive

Challenge: Just curious, what result did CN(Cc1ccc(C(C)(C)C)cc1)Cc1cccc2ccccc12 get here?
Response given: active

Challenge: Just curious, what result did Nc1ccccc1S(=O)(=O)c1ccccc1 get here?
Response given: inactive

Challenge: Just curious, what result did CCCCCCCCCCCCCCCCCCOS(=O)(=O)O get here?
Response given: active

Challenge: Just curious, what result did NCCCN1CCOCC1 get here?
Response given: inactive

Challenge: Just curious, what result did O=C1CCC(=O)O1 get here?
Response given: inactive

Challenge: Just curious, what result did Cc1cccc(Nc2ccccc2)c1 get here?
Response given: inactive

Challenge: Just curious, what result did CC(=O)NO get here?
Response given: inactive
